These measurements were taken from patent US10723707B2.

# minimal effective concentration annotations
test system: interferon-stimulated responsive elements (ISRE); test: Activation of ISRE promoter elements in HEK-ISREluc cells by conditioned media from PBMC; assay type: cell-based; settings: Homo sapiens, compound concentration applied to PBMCs, supernatant transferred to HEK-ISREluc cells, 24 hours, read-out: HEK-ISRE luc (LEC)
All answers are understood in µM, so give the number only.

// query Return value of minimal effective concentration for input Cc1cc(CNc2nc(N)nc3cccc(C)c23)no1 [Compound 19] , no commentary.
// result 0.051

// query Give me measured minimal effective concentration, please, for this compound: CCc1noc([C@@H](C)Nc2nc(N)nc3cccc(OC)c23)n1 (single isomer, unassigned) [Compound 25]
// result 0.49

// query Please look at this compound and report its minimal effective concentration: COc1cccc2nc(N)nc(N[C@H](c3ccccn3)C(F)(F)F)c12 (single isomer, unassigned) [Compound 3]
// result 0.47

// query Output minimal effective concentration of COC(=O)c1ccc2c(N[C@H](C)c3ccccn3)nc(N)nc2c1 (single isomer, unassigned) [Compound 8]
// result 2.11

Continue with the next compound.
// query Answer with the recorded minimal effective concentration of CNC(=O)c1ccc2c(N[C@H](C)c3ccccn3)nc(N)nc2c1 (single isomer, unassigned) [Compound 27] only.
// result 5.04

---

Reported Human TLR 8 (LEC) is given for each of the following compounds.
Target: human TLR8 (Homo sapiens, UniProt Q9NR97)
Construct: expressed in transfected cells; host or cells: HEK293
Sequence (Q9NR97 27-1041): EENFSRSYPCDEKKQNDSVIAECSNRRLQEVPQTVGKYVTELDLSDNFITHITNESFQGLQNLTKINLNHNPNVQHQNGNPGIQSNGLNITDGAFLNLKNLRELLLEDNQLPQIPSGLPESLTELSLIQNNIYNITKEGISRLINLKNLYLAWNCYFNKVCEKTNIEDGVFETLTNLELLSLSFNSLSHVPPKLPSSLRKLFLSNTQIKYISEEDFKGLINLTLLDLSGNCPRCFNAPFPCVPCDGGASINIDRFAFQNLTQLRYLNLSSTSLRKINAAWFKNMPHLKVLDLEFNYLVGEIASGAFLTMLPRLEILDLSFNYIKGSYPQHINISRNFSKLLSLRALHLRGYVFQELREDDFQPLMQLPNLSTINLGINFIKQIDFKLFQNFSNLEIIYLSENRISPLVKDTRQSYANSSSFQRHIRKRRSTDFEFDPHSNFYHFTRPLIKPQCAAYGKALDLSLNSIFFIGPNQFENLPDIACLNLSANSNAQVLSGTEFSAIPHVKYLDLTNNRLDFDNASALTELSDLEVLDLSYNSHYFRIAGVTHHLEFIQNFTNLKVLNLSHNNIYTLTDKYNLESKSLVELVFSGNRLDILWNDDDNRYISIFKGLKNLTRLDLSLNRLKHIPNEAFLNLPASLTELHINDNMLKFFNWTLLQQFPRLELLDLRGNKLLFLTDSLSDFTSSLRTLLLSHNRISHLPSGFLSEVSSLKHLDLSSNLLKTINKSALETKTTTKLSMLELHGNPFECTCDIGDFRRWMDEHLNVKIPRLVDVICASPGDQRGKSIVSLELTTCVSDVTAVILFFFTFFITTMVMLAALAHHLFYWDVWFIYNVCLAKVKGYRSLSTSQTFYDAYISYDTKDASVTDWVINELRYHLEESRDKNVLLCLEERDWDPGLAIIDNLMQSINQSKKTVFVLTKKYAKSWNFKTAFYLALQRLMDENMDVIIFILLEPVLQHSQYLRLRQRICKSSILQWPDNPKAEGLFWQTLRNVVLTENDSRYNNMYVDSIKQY
Assay: TLR8 cellular NFκB-luc reporter assay in transiently transfected HEK293 cells
Format: cell-based
Settings: lowest effective concentration, 6 hours incubation
Respond numerically; units are µM and should not be typed.

Example entries begin here.
// query Please report Human TLR 8 (LEC) for the following compound: "Cc1cc(CNc2nc(N)nc3cccc(CO)c23)no1"
// result 9.0

// query Find the measured Human TLR 8 (LEC) of "Cc1cc(CNc2nc(N)nc3cccc(C)c23)no1" and report it.
// result 1.74

// query Tell me its Human TLR 8 (LEC) given "Cc1cc(CNc2nc(N)nc3cccc(F)c23)no1" as the entry.
// result 3.09

// query State its Human TLR 8 (LEC): C[C@@H](Nc1nc(N)nc2cc(F)ccc12)c1ccccn1 (single isomer, unassigned)
// result 19.8

// query Indicate its recorded Human TLR 8 (LEC); the compound in question is CCn1ncnc1[C@H](C)Nc1nc(N)nc2cccc(OC)c12 (single isomer, unassigned)
// result 8.85

// query Look up and state reported Human TLR 8 (LEC) for C[C@@H](Nc1nc(N)nc2cc(Cl)ccc12)c1ccccn1 (single isomer, unassigned)
// result 16.4

Then this compound:
// query Please report the measured Human TLR 8 (LEC) for "COc1cccc2nc(N)nc(NCc3cc(C)on3)c12"
// result 1.94
